B1: HDV Ribozyme (parent)
chain: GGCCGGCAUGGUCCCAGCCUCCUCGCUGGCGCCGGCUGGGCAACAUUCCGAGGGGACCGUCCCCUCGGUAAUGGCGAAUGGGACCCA

Variants of: B1
METHOD_DESCRIPTION: self-cleavage, relative activity (ratio to wild type); higher = more cleavage; co-transcriptional
For each entry below, report its self-cleavage value.
Answer using only a numeral; do not append any unit.

May I ask what self-cleavage has been recorded for A45G C75U ?
0.208

May I ask what self-cleavage has been recorded for G1A C30G ?
0

May I ask what self-cleavage has been recorded for U72G C75G ?
0.262

May I ask what self-cleavage has been recorded for A8C U27G ?
0.88

May I ask what self-cleavage has been recorded for G59A C63A ?
1.07

May I ask what self-cleavage has been recorded for G40C G54U ?
0.205

May I ask what self-cleavage has been recorded for `G53C` ?
0.97

May I ask what self-cleavage has been recorded for G76C G80C ?
0.093

May I ask what self-cleavage has been recorded for C15A A87U ?
0.746

May I ask what self-cleavage has been recorded for C36A C58G ?
0.119

May I ask what self-cleavage has been recorded for C21A A77G ?
0.0678

May I ask what self-cleavage has been recorded for G25C G73C ?
0.0773

May I ask what self-cleavage has been recorded for G6C G29A ?
0

May I ask what self-cleavage has been recorded for C14U U27A ?
1.03

May I ask what self-cleavage has been recorded for `A83G` ?
0.806

May I ask what self-cleavage has been recorded for G28C G35C ?
0.0554

May I ask what self-cleavage has been recorded for A83G C84G ?
0.95

May I ask what self-cleavage has been recorded for G34A C85A ?
0.199

May I ask what self-cleavage has been recorded for C13A G40A ?
0.233

May I ask what self-cleavage has been recorded for G82C C85A ?
0.147

May I ask what self-cleavage has been recorded for U46C G59U ?
0.962

May I ask what self-cleavage has been recorded for C32U A71C ?
0.665
